- Test system: ETK-1 (Biliary Tract Carcinoma)
- Assay Overview: combination Emax (second highest fraction inhibited in the dose matrix, 72 h); higher = more inhibition; extreme values may be limits of the assay
Recorded Endpoint: combination Emax
One number for each entry.

INPUT: Give reported combination Emax value for CC1(C)CCC(CN2CCN(c3ccc(C(=O)NS(=O)(=O)c4ccc(NCC5CCOCC5)c([N+](=O)[O-])c4)c(Oc4cnc5[nH]ccc5c4)c3)CC2)=C(c2ccc(Cl)cc2)C1 [Venetoclax] + C[C@@H]1COCCN1C2=NC(=NC(=C2)C3(CC3)[S@](=N)(=O)C)C4=C5C=CNC5=NC=C4 [AZD6738] (first compound max 1 µM, 7x7, partner max 10 µM)
OUTPUT: 0.723

---

Can you tell me Bliss excess for the items I'm about to list?
- Tested on: SW48 (Colorectal Carcinoma);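 also: after 72 h of two-drug dosing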
- Assay Overview: Bliss excess, mean over the matrix (fraction); higher = more synergy

Molecule: O=C(c1cc(Cc2n[nH]c(=O)c3ccccc23)ccc1F)N1CCN(C(=O)C2CC2)CC1 [Olaparib] + Cc1c2c(nn1C)CSCc1cc(n(C)n1)CSc1cc(c3ccccc3c1)OCCCc1c(C(=O)O)n(C)c3c-2c(Cl)ccc13 [AZD5991] (first compound max 10 µM, 7x7, partner max 1 µM)
Bliss excess: -0.0253

Molecule: C[C@@H](Nc1cc(F)cc(F)c1)c1cc(C(=O)N(C)C)cc2c(=O)cc(N3CCOCC3)oc12 [AZD8186] + CC(=O)c1c(C)c2cnc(Nc3ccc(N4CCNCC4)cn3)nc2n(C2CCCC2)c1=O [Palbociclib] (first compound max 10 µM, 7x7, partner max 10 µM)
Bliss excess: 0.0715

Molecule: Cc1cc2ncnn2cc1Nc1ncc2c(n1)n(C1CCOCC1)c(=O)n2C [AZD7648] + C=CCn1c(=O)c2cnc(Nc3ccc(N4CCN(C)CC4)cc3)nc2n1-c1cccc(C(C)(C)O)n1 [AZD1775] (first compound max 10 µM, partner max 1 µM)
Bliss excess: -0.0702

Would you mind giving Bliss excess for every molecule in the list below?
1. CN(CCO)CC[C@H](CSc1ccccc1)Nc1ccc(S(=O)(=O)NC(=O)c2ccc(N3CCC([C@@H](O)c4ccccc4-c4ccc(Cl)cc4)CC3)cc2)cc1S(=O)(=O)C(F)(F)F [AZD4320] + CN(C)CCCOc1ccc(-c2ccc3ncc4c(c3c2)n(C2CCOCC2)c(=O)n4C)cn1 [AZD0156] (first compound max 1 µM, 7x7, partner max 1 µM)
2. CC1(C)CCC(CN2CCN(c3ccc(C(=O)NS(=O)(=O)c4ccc(NCC5CCOCC5)c([N+](=O)[O-])c4)c(Oc4cnc5[nH]ccc5c4)c3)CC2)=C(c2ccc(Cl)cc2)C1 [Venetoclax] + C=CCn1c(=O)c2cnc(Nc3ccc(N4CCN(C)CC4)cc3)nc2n1-c1cccc(C(C)(C)O)n1 [AZD1775] (first compound max 1 µM, partner max 1 µM)
3. CC1(C)CCC(CN2CCN(c3ccc(C(=O)NS(=O)(=O)c4ccc(NCC5CCOCC5)c([N+](=O)[O-])c4)c(Oc4cnc5[nH]ccc5c4)c3)CC2)=C(c2ccc(Cl)cc2)C1 [Venetoclax] + CS(=O)(=O)CCNCc1ccc(-c2ccc3ncnc(Nc4ccc(OCc5cccc(F)c5)c(Cl)c4)c3c2)o1 [Lapatinib] (first compound max 1 µM, 7x7, partner max 10 µM)

OUTPUT:
-0.0545
0.0294
0.0163

---

- Tested on: MEG-01 (Chronic Myelogenous Leukemia)
- Assay Overview: combination Emax (second highest fraction inhibited in the dose matrix, 72 h); higher = more inhibition; extreme values may be limits of the assay
Can you tell me combination Emax for the items I'm about to list?
Numbers only.

// solved cases for combination Emax follow
Compound: N#Cc1cnc(Nc2cc(NC[C@H]3CNCCO3)c(C(F)(F)F)cn2)cn1 [SRA737] + O=c1[nH]cc(F)c(=O)[nH]1 [5-Fluorouracil] (first compound max 10 µM, 7x7, partner max 20 µM)
Readout Number: 0.835
--
Compound: COc1nnc2ccc(N3CCC(c4ccc(OCCN5CCN(C)C(=O)[C@H]5C)cc4)CC3)nn12 [AZD5153] + Cc1c2c(nn1C)CSCc1cc(n(C)n1)CSc1cc(c3ccccc3c1)OCCCc1c(C(=O)O)n(C)c3c-2c(Cl)ccc13 [AZD5991] (first compound max 1 µM, 7x7, partner max 1 µM)
Readout Number: 0.961

INPUT: Give reported combination Emax value for Cc1c2c(nn1C)CSCc1cc(n(C)n1)CSc1cc(c3ccccc3c1)OCCCc1c(C(=O)O)n(C)c3c-2c(Cl)ccc13 [AZD5991] + CC1(C)CCC(CN2CCN(c3ccc(C(=O)NS(=O)(=O)c4ccc(NCC5CCOCC5)c([N+](=O)[O-])c4)c(Oc4cnc5[nH]ccc5c4)c3)CC2)=C(c2ccc(Cl)cc2)C1 [Venetoclax] (first compound max 1 µM, 7x7, partner max 1 µM)
OUTPUT: 0.837

---

Can you tell me combination Emax for the items I'm about to list?
- System: U-118-MG (Low Grade Glioma)
- Assay Overview: combination Emax (second highest fraction inhibited in the dose matrix, 72 h); higher = more inhibition; extreme values may be limits of the assay
One number for each entry.

// solved cases for combination Emax follow
Compound: CN(C)CCCOc1ccc(-c2ccc3ncc4c(c3c2)n(C2CCOCC2)c(=O)n4C)cn1 [AZD0156] + C[C@@H]1COCCN1C2=NC(=NC(=C2)C3(CC3)[S@](=N)(=O)C)C4=C5C=CNC5=NC=C4 [AZD6738] (first compound max 1 µM, 7x7, partner max 10 µM)
Assayed System: U-118-MG (Low Grade Glioma)
Recorded Endpoint: combination Emax
Readout Number: 0.528

Compound: COc1cccc(OCCCN)c1-c1cc(Nc2cnc(C#N)cn2)n[nH]1 [Prexasertib] + O=C(c1cc(Cc2n[nH]c(=O)c3ccccc23)ccc1F)N1CCN(C(=O)C2CC2)CC1 [Olaparib] (first compound max 1 µM, 7x7, partner max 10 µM)
Assayed System: U-118-MG (Low Grade Glioma)
Recorded Endpoint: combination Emax
Readout Number: 0.751

Compound: Cc1c2c(nn1C)CSCc1cc(n(C)n1)CSc1cc(c3ccccc3c1)OCCCc1c(C(=O)O)n(C)c3c-2c(Cl)ccc13 [AZD5991] + Cc1cc2ncnn2cc1Nc1ncc2c(n1)n(C1CCOCC1)c(=O)n2C [AZD7648] (first compound max 1 µM, 7x7, partner max 10 µM)
Assayed System: U-118-MG (Low Grade Glioma)
Recorded Endpoint: combination Emax
Readout Number: 0.425

Compound: CN(C)CCCOc1ccc(-c2ccc3ncc4c(c3c2)n(C2CCOCC2)c(=O)n4C)cn1 [AZD0156] + C=CCn1c(=O)c2cnc(Nc3ccc(N4CCN(C)CC4)cc3)nc2n1-c1cccc(C(C)(C)O)n1 [AZD1775] (first compound max 1 µM, partner max 1 µM)
Assayed System: U-118-MG (Low Grade Glioma)
Recorded Endpoint: combination Emax
Readout Number: 0.316

Compound: COc1cccc(OCCCN)c1-c1cc(Nc2cnc(C#N)cn2)n[nH]1 [Prexasertib] + C=CCn1c(=O)c2cnc(Nc3ccc(N4CCN(C)CC4)cc3)nc2n1-c1cccc(C(C)(C)O)n1 [AZD1775] (first compound max 1 µM, partner max 1 µM)
Assayed System: U-118-MG (Low Grade Glioma)
Recorded Endpoint: combination Emax
Readout Number: 0.743

Compound: CC1(C)CCC(CN2CCN(c3ccc(C(=O)NS(=O)(=O)c4ccc(NCC5CCOCC5)c([N+](=O)[O-])c4)c(Oc4cnc5[nH]ccc5c4)c3)CC2)=C(c2ccc(Cl)cc2)C1 [Venetoclax] + COc1cc(Nc2ncc3c(n2)-c2ccc(Cl)cc2C(c2c(F)cccc2OC)=NC3)ccc1C(=O)O [Alisertib] (first compound max 1 µM, 7x7, partner max 10 µM)
Assayed System: U-118-MG (Low Grade Glioma)
Recorded Endpoint: combination Emax
Readout Number: 0.527

Compound: C=CCn1c(=O)c2cnc(Nc3ccc(N4CCN(C)CC4)cc3)nc2n1-c1cccc(C(C)(C)O)n1 [AZD1775] + C1CN(CCC1(C(=O)N[C@@H](CCO)C2=CC=C(C=C2)Cl)N)C3=NC=NC4=C3C=CN4 [Capivasertib] (first compound max 3 µM, partner max 3 µM)
Assayed System: U-118-MG (Low Grade Glioma)
Recorded Endpoint: combination Emax
Readout Number: 0.577

Compound: COc1nnc2ccc(N3CCC(c4ccc(OCCN5CCN(C)C(=O)[C@H]5C)cc4)CC3)nn12 [AZD5153] + Cc1c2c(nn1C)CSCc1cc(n(C)n1)CSc1cc(c3ccccc3c1)OCCCc1c(C(=O)O)n(C)c3c-2c(Cl)ccc13 [AZD5991] (first compound max 1 µM, 7x7, partner max 1 µM)
Assayed System: U-118-MG (Low Grade Glioma)
Recorded Endpoint: combination Emax
Readout Number: 0.352

Would you mind giving combination Emax for every compound in the list below?
1. Cc1nc(Nc2ncc(C(=O)Nc3c(C)cccc3Cl)s2)cc(N2CCN(CCO)CC2)n1 [Dasatinib] + CC(=O)Nc1cccc(-n2c(=O)n(C3CC3)c(=O)c3c(Nc4ccc(I)cc4F)n(C)c(=O)c(C)c32)c1 [Trametinib] (first compound max 2 µM, 7x7, partner max 1 µM)
2. C=CCn1c(=O)c2cnc(Nc3ccc(N4CCN(C)CC4)cc3)nc2n1-c1cccc(C(C)(C)O)n1 [AZD1775] + C[C@@H]1COCCN1C2=NC(=NC(=C2)C3(CC3)[S@](=N)(=O)C)C4=C5C=CNC5=NC=C4 [AZD6738] (first compound max 1 µM, partner max 10 µM)
3. CC(=O)Nc1cccc(-n2c(=O)n(C3CC3)c(=O)c3c(Nc4ccc(I)cc4F)n(C)c(=O)c(C)c32)c1 [Trametinib] + Cc1nc(-c2cn3c(n2)-c2ccc(-c4cnn(C(C)(C)C(N)=O)c4)cc2OCC3)n(C(C)C)n1 [Taselisib] (first compound max 1 µM, 7x7, partner max 10 µM)
4. Cn1cnc2c(F)c(Nc3ccc(Br)cc3Cl)c(C(=O)NOCCO)cc21 [Selumetinib] + C[C@@H]1COCCN1C2=NC(=NC(=C2)C3(CC3)[S@](=N)(=O)C)C4=C5C=CNC5=NC=C4 [AZD6738] (first compound max 10 µM, 7x7, partner max 10 µM)
5. CC(=O)c1c(C)c2cnc(Nc3ccc(N4CCNCC4)cn3)nc2n(C2CCCC2)c1=O [Palbociclib] + CN(CC[C@H](CSC1=CC=CC=C1)NC2=C(C=C(C=C2)S(=O)(=O)NC(=O)C3=CC=C(C=C3)N4CCC(CC4)[C@H](C5=CC=CC=C5C6=CC=C(C=C6)Cl)O)S(=O)(=O)C(F)(F)F)CCO [AZD4320] (first compound max 10 µM, 7x7, partner max 1 µM)

OUTPUT:
0.557
0.662
0.757
0.479
0.466
